# Test system: membrane ghosts
# protocol_description: Membrane binding stability (MBS) assay in membrane ghosts with 5% albumin
# cond: 24 hours, Table III
Response field label: string, one of 1.0 (MBS strictly below 60%) or 0.0.

{"smiles_representation": "CCCCCCCCCCCCCC[N+]1=C(C=CC=C2N(CCC)c3ccccc3C2(C)C)C(C)(C)c2ccccc21", "classification": 1.0}
{"smiles_representation": "CCCCCCCCCCCCCCCCCCCCCCN1C(=CC=Cc2sc3ccccc3[n+]2CCC)Sc2ccccc21", "classification": 0.0}
{"smiles_representation": "CCCCCCCCCCCCCCCCCCCCCCN1C(=CC=CC2=[N+](CCCCCCCCCCCCCC)c3ccccc3C2(C)C)C(C)(C)c2ccccc21", "classification": 0.0}
{"smiles_representation": "CCCCCCCCCCCCCCN1C(=CC=Cc2sc3ccccc3[n+]2CCCCCCCCCCCCCC)Sc2ccccc21", "classification": 0.0}
{"smiles_representation": "CCCCCCCCCCCCCCCCCCCCCC[N+]1=C(C=CC=C2N(CCCCCCCCCCCCCC)c3ccc(CNC=O)cc3C2(C)C)C(C)(C)c2ccccc21", "classification": 0.0}
{"smiles_representation": "CCCCCCCCCCCCCCCCCCN1C(=CC=Cc2oc3ccccc3[n+]2CCCCCCCCCCCCCCCCCC)Oc2ccccc21", "classification": 0.0}
{"smiles_representation": "CCCCCCCCCCCCCCCCCCCCCCN1C(=CC=Cc2oc3ccccc3[n+]2CCC)Oc2ccccc21", "classification": 1.0}
{"smiles_representation": "CCCCCCCCCCCCCCN1C(=CC=CC2=[N+](CCCCCCCCCCCCCC)c3ccccc3C2(C)C)C(C)(C)c2ccccc21", "classification": 1.0}
{"smiles_representation": "CCCCCCCCCCCCCCN1C(=CC=Cc2oc3ccccc3[n+]2CCCCCCCCCCCCCC)Oc2ccccc21", "classification": 0.0}
{"smiles_representation": "CCCCCCCCCCCCCCN1C(=CC=CC2=[N+](CCC)c3ccccc3C2(C)C)C(C)(C)c2ccccc21", "classification": 1.0}
{"smiles_representation": "CCCCCCCCCCCCCCCCCCN1C(=CC=Cc2sc3ccccc3[n+]2CCCCCCCCCCCCCCCCCC)Sc2ccccc21", "classification": 0.0}
